target: SHP2 (Homo sapiens (Human), UniProt Q06124); assay: SHP2 allosteric inhibitory enzyme activity assay (DiFMUP fluorescence); assay type: biochemical; conditions: read-out: SHP2 enzymatic activity IC50
Sequence (Q06124 whole entry): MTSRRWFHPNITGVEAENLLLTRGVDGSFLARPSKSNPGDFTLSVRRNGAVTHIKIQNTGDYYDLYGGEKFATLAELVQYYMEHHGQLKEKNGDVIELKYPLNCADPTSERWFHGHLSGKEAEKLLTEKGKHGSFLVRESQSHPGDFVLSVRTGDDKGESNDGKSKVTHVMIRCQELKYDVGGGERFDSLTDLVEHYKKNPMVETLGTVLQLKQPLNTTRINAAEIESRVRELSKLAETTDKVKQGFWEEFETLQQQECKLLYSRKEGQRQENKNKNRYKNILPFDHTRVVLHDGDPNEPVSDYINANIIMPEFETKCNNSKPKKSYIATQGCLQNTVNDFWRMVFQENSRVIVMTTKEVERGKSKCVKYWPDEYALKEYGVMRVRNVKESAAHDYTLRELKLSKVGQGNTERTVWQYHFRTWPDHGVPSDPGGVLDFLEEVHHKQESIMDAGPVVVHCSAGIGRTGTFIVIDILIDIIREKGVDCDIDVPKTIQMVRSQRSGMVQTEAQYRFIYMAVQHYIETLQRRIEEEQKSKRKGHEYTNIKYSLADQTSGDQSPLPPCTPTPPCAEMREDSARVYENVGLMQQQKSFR
valueKind: IC50 (nM)
Reply numerically in nM, unit not repeated.

Would you please look over these solved cases?
In [3]: df
Out[3]:
                                  cpdsmiles  valuekind  measvalue
0  COc1cc(OCC#Cc2cnc(N3CCC4(CC3)Cc3ccccc3[C@H]4N)c(CO)n2)ccn1       IC50        1.4
1  CC(=O)Nc1cccc(NCC#Cc2cnc(N3CCC4(CC3)Cc3ccccc3[C@H]4N)c(CO)n2)c1       IC50        3.5

Report IC50 for N[C@@H]1c2ccccc2CC12CCN(c1ncc(C#CCNc3ccc(C(F)(F)F)nc3)nc1CO)CC2 tested on SHP2 (Homo sapiens (Human), UniProt Q06124). 5
